Molecular target: Concanavalin-A (Canavalia ensiformis) (UniProt P02866)
Sequence (P02866 whole entry, looked up): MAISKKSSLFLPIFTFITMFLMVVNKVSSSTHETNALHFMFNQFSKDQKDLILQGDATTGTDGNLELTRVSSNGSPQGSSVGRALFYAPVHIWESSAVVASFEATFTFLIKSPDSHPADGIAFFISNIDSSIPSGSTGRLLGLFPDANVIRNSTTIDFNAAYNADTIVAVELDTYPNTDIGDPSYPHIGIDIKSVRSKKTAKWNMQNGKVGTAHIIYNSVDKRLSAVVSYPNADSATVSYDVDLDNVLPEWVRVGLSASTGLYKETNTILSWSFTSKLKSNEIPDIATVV
Assay: ConA small-molecule binders, primary screen, artefact control for SMM control protein annotation, biochemical, small-molecule microarray, Alexa647 label, 635 nm (AID 1127)
Details: ConA-A647 binding fluorescence, higher = more signal
Outcome: Yes for composite z-score of at least 1; No for anything lower.

compound | cat
O=C(c1ccccc1)N1Cc2ccccc2[C@@H]2OC(c3ccc(OCCCO)cc3)=N[C@]2(Cc2ccccc2)C1=O | Yes
C=C(CCCC)C(=O)CC[C@H](OC(=O)c1cccnc1)c1ccccc1OCCO | No
COCC(=C=CC[C@@H](O)c1ccccc1OCCO)C[C@@H](O)c1cc(Cl)cc(Cl)c1O | Yes
C=CC[C@]12N=C(c3ccc(OCCCO)cc3)O[C@H]1c1ccccc1N(Cc1ccccc1)C2=O | No
CC(C)C(=C=CC[C@@H](O)c1ccccc1OCCO)CCO | No
O=C1NC(=O)C2C1C=CC(C(O)c1ccccc1)N2Nc1ccc(Cl)cc1Cl (stereo not drawn) | Yes

Is it the case that CO[C@H]1O[C@H](CO)[C@@H](OC(=O)Nc2ccc(Br)cc2)[C@H](OC(=O)c2cc3ccccc3[nH]2)[C@H]1OC(=O)c1cc2ccccc2[nH]1 has composite z-score reaching or exceeding 1?
Yes

hey, is composite z-score for this one >= 1? COc1cc(CO)cc(I)c1O[C@H]1C=C(C(=O)NCCO)C[C@@H](N(CCN2CCOCC2)C(=O)C2CCOC2)[C@@H]1O (stereo partly drawn)
No
